Data origin: ChEMBL document CHEMBL1130789

Molecular target: Chymase (Homo sapiens, UniProt P23946)
Sequence (P23946 whole entry): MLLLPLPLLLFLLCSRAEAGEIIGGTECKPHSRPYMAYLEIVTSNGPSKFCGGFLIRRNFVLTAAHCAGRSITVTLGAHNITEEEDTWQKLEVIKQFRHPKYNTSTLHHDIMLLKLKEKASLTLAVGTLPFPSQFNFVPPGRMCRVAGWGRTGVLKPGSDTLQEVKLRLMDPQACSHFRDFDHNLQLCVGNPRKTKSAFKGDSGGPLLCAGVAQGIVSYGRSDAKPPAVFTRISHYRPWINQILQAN
Non-standard residues stand in square brackets, D forms with d. Residues, ends and D or L forms follow the SMILES beside them. ξ: configuration not given here. *: point of attachment. ξF = NC(Cc1ccccc1)C(=O)O; Boc = CC(C)(C)OC(=O)*; CF3 = FC(F)(F)*
readoutKind: Ki (nM)

• CC(C)[C@H](NC(=O)OC(C)(C)C)C(=O)N1CCC[C@H]1C(=O)NC(Cc1ccccc1)C(=O)C(F)(F)C(=O)NCCCC(=O)O (stereo partly drawn) = 24

(P) CC(C)[C@H](NC(=O)OC(C)(C)C)C(=O)N1CCC[C@H]1C(=O)NC(Cc1ccccc1)C(=O)C(F)(F)F (stereo partly drawn) (Boc-Val-Pro-[ξF]-CF3)
(Q) CC(C)[C@H](NC(=O)OC(C)(C)C)C(=O)N1CCC[C@H]1C(=O)NC(Cc1ccccc1)C(=O)C(F)(F)C(=O)NC(CC(=O)O)C(=O)O (stereo partly drawn)
Could you tell me which of P and Q has the lower Ki reading? # reply format: chosen label P

----------
species: Bos taurus; assay: Selectivity ratio of Bovine chymotrypsin (BCT - Ki) to human heart chymase (HHC - Ki)
Non-standard residues stand in square brackets, D forms with d. Residues, ends and D or L forms follow the SMILES beside them. ξ: configuration not given here. *: point of attachment. ξF = NC(Cc1ccccc1)C(=O)O; Boc = CC(C)(C)OC(=O)*; CF3 = FC(F)(F)*
readoutKind: Ratio

Worked cases, Ratio given:
• CC(C)[C@H](NC(=O)OC(C)(C)C)C(=O)N1CCC[C@H]1C(=O)NC(Cc1ccccc1)C(=O)C(F)(F)F (stereo partly drawn) (Boc-Val-Pro-[ξF]-CF3) = 2
• CC(C)[C@H](NC(=O)OC(C)(C)C)C(=O)N1CCC[C@H]1C(=O)NC(Cc1ccccc1)C(=O)C(F)(F)C(=O)NCCc1ccccc1 (stereo partly drawn) = 111
• CC(C)[C@H](NC(=O)OC(C)(C)C)C(=O)N1CCC[C@H]1C(=O)NC(Cc1ccccc1)C(=O)C(F)(F)C(=O)NCc1ccccc1 (mixture of isomers; form 1) = 23
• CC(C)[C@H](NC(=O)OC(C)(C)C)C(=O)N1CCC[C@H]1C(=O)NC(Cc1ccccc1)C(=O)C(F)(F)C(=O)NCCCC(=O)O (stereo partly drawn) = 185
• CC(C)[C@H](NC(=O)OC(C)(C)C)C(=O)N1CCC[C@H]1C(=O)NC(Cc1ccccc1)C(=O)C(F)(F)C(=O)NCc1ccccc1 (mixture of isomers; form 2) = 129

(A) CC(C)[C@H](NC(=O)OC(C)(C)C)C(=O)N1CCC[C@H]1C(=O)NC(Cc1ccccc1)C(=O)C(F)(F)C(=O)N[C@@H](Cc1ccccc1)C(=O)O (stereo partly drawn)
(B) CC(C)[C@H](NC(=O)OC(C)(C)C)C(=O)N1CCC[C@H]1C(=O)NC(Cc1ccccc1)C(=O)C(F)(F)C(=O)Nc1ccccc1 (stereo partly drawn)
Could you tell me which of A and B has the lower Ratio reading? # reply format: chosen label B

(I) CC(=O)N[C@H](C(=O)N1CCC[C@H]1C(=O)NC(Cc1ccccc1)C(=O)C(F)(F)C(=O)Nc1cccc(C(=O)O)c1)C(C)C (stereo partly drawn)
(II) CC(NC(=O)C(F)(F)C(=O)C(Cc1ccccc1)NC(=O)[C@@H]1CCCN1C(=O)[C@@H](NC(=O)OC(C)(C)C)C(C)C)C(=O)O (stereo partly drawn)
Could you tell me which of I and II has the lower Ratio reading? # reply format: chosen label I
(I: 2, II: 837)
